# Assayed target: α1G T-type calcium channel (Homo sapiens, UniProt O43497)
# Construct: host or cells: HEK293
# Sequence (O43497 whole entry): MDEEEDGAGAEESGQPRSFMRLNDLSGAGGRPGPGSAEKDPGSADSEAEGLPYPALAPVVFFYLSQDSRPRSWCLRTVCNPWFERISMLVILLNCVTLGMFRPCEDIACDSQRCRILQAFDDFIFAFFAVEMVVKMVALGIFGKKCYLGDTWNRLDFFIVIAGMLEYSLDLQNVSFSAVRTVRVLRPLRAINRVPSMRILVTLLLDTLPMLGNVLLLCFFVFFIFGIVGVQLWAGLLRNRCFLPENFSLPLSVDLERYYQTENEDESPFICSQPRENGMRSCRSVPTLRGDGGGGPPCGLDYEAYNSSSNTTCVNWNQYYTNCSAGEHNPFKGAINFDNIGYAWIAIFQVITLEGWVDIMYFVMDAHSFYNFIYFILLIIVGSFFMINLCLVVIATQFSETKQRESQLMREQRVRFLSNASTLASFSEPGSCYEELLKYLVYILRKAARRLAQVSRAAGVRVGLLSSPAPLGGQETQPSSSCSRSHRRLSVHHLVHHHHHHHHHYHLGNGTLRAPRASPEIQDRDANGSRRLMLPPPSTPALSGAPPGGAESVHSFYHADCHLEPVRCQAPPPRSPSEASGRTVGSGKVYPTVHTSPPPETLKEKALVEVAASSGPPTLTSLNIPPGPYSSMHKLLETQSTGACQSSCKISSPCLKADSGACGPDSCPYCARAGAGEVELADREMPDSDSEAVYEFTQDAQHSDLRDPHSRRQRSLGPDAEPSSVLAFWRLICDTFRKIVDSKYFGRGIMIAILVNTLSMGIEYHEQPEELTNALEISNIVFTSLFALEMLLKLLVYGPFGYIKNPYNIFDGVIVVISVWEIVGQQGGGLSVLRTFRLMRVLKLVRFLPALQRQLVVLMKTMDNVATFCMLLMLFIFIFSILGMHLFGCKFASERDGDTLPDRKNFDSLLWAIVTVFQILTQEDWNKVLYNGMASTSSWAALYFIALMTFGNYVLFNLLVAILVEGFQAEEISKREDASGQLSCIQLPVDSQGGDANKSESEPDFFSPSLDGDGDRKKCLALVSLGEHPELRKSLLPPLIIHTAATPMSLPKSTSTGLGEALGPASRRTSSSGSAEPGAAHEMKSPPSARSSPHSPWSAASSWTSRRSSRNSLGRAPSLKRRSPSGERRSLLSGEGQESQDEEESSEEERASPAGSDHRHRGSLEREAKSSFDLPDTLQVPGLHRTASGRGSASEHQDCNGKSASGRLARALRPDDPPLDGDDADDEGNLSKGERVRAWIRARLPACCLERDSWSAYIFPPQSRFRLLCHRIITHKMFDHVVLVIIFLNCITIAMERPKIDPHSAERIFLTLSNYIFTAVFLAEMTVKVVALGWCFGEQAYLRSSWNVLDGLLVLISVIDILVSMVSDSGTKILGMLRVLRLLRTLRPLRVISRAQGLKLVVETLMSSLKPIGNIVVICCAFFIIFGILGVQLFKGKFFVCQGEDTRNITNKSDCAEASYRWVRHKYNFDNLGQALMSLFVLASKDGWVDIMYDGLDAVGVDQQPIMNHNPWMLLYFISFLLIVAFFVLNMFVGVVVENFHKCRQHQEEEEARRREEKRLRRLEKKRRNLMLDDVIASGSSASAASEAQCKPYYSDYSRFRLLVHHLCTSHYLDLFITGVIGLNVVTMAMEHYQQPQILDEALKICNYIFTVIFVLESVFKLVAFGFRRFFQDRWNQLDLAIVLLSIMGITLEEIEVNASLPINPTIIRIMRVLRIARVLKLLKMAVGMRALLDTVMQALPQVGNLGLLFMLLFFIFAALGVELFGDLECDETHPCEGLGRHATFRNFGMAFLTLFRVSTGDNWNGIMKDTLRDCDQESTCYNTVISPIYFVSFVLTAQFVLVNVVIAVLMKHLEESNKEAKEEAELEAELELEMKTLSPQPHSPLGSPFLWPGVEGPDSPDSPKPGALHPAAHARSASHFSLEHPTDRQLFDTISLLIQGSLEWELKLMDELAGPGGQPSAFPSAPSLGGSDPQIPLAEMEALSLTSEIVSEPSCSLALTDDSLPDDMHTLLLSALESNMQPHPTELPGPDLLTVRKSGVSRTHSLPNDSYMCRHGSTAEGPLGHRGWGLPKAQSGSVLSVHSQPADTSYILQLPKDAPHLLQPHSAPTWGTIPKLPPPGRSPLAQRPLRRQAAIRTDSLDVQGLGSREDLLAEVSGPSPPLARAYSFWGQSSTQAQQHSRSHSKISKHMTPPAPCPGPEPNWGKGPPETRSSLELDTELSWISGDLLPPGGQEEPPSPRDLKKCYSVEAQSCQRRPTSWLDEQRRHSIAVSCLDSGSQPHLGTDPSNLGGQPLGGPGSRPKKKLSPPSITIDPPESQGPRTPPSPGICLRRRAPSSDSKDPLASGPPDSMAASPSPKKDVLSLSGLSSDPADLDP
# Protocol: Assay for % inhibiting activity against T-type calcium channel using FDSS6000 (fluo-3 calcium imaging, KCl activation)
# Format: cell-based
# Applied conditions: HEK293, 10 μM; HEK293 cells stably expressing α1G T-type calcium channel and Kir2.1; compounds of the examples; read-out: FDSS (% inhibition)/10uM
Where a name gives a salt, the structure may show the parent alone.
Observed property: inhibition at 10 µM (%)

Compound	Unit tag	Test value
COc1ccc(NC(=O)CC2CSC(=NC3CCCCC3)N2C)cc1Cl.Cl (centres unmarked) [KHG24070, hydrochloride]	%	53
CC(C)N1C(=NC23CC4CC(CC(C4)C2)C3)SCC1CC(=O)Nc1ccc(Cl)cc1.Cl (centres unmarked) [KHG24823, hydrochloride]	%	54.1
Cl.O=C(CC1CSC(=NC2CCCCC2)N1C1CCCCC1)Nc1cc(C(F)(F)F)cc(C(F)(F)F)c1 (centres unmarked) [KHG24307, hydrochloride]	%	43.9
CN1C(=NC2CCCCC2)SCC1CC(=O)Nc1ccc(Cl)c(Cl)c1.Cl (centres unmarked) [KHG24531, hydrochloride]	%	48.4
CCCCN1C(=NC2CCCCC2)SCC1CC(=O)Nc1ccc(C(C)C)cc1.Cl (centres unmarked) [KHG24283, hydrochloride]	%	51.2
CCCN1C(=NC2CCCCC2)SCC1CC(=O)Nc1ccc(C)cc1.Cl (centres unmarked) [KHG24297, hydrochloride]	%	51
CCCN1C(=NC2CCCCC2)SCC1CC(=O)Nc1cc([N+](=O)[O-])ccc1F.Cl (centres unmarked) [KHG24295, hydrochloride]	%	36.2
CCCN1C(=NC2CCCCC2)SCC1CC(=O)NCc1ccc(C)cc1.Cl (centres unmarked) [KHG24293, hydrochloride]	%	55.8
CCN1C(=NC2CCCCC2)SCC1CC(=O)Nc1ccc(C(F)(F)F)cc1.Cl (centres unmarked) [KHG24280, hydrochloride]	%	54
CN1C(=NC2CCCCCC2)SCC1C(=O)Nc1cc(C(F)(F)F)cc(C(F)(F)F)c1 (centres unmarked)	%	56.8
CC(C)c1ccc(NC(=O)CC2CSC(=NC3CCCCC3)N2C)cc1 (centres unmarked) [KHG24110, hydrochloride]	%	53.6

* * *

Outcome: Satisfied for melting point of at least 200 °C; Not satisfied for anything lower.

Molecule	Assigned label
CN1C(=NC2CCCCC2)SCC1CC(=O)Nc1cc(Cl)ccc1Cl.Cl (centres unmarked)	Satisfied
CCCCN1C(=NC23CC4CC(CC(C4)C2)C3)SCC1CC(=O)Nc1cc(CF)cc(CF)c1.Cl (centres unmarked)	Satisfied
CCc1ccc(NC(=O)CC2CSC(=NC34CC5CC(CC(C5)C3)C4)N2C2CC2)cc1.Cl (centres unmarked)	Satisfied
CCCCN1C(=NC23CC4CC(CC(C4)C2)C3)SCC1CC(=O)Nc1cc(Cl)cc(Cl)c1.Cl (centres unmarked)	Not satisfied
CCCCc1ccc(NC(=O)CC2CSC(=NC34CC5CC(CC(C5)C3)C4)N2CCCC)cc1.Cl (centres unmarked)	Not satisfied
CCCN1C(=NC2CCCCC2)SCC1CC(=O)Nc1ccc(Br)cc1.Cl (centres unmarked)	Satisfied
CCCCN1C(=NC23CC4CC(CC(C4)C2)C3)SCC1CC(=O)Nc1ccc(Cl)cc1F.Cl (centres unmarked)	Not satisfied
CN1C(=NC2CCCCCC2)SCC1C(=O)Nc1ccc(F)cc1 (centres unmarked)	Not satisfied
CCN1C(=NC2CCCCC2)SCC1CC(=O)Nc1cc(C(F)(F)F)cc(C(F)(F)F)c1.Cl (centres unmarked)	Satisfied
